Data credit: patent US10610563B2

Assay: in vitro
Conditions: human, wild type haploid (HAP1) cells
Reported Metric: cytotoxicity at 18 h, 30 nM (%)
// units = %; emit number, no label

*Q* Give its cytotoxicity at 18 h, 30 nM value. Item: `CC(C)C[C@H](NC(=O)[C@H](Cc1ccccc1)NC(=O)c1cnccn1)B(O)O`
*A* 26.3

* * *

Assay: in vitro
Details: human, wild type haploid (HAP1) cells
Reported Metric: cytotoxicity at 24 h, 30 nM
Respond with the figure and its unit, in that order.

*Q* Which cytotoxicity at 24 h, 30 nM value is on record for CC(C)C[C@H](NC(=O)[C@H](Cc1ccccc1)NC(=O)c1cnccn1)B(O)O [bortezomib] ?
*A* 75%

* * *

Assay: in vitro
Conditions: human, wild type haploid (HAP1) cells
Reported Metric: cytotoxicity at 6 h, 0.1 nM (%)
Answer format: numeric, % implied, no suffix.

*Q* Sample CC(C)C[C@H](NC(=O)[C@H](Cc1ccccc1)NC(=O)c1cnccn1)B(O)O [bortezomib] — what was its cytotoxicity at 6 h, 0.1 nM?
*A* 2.64

* * *

Assay: in vitro
Conditions: human, wild type haploid (HAP1) cells
Reported Metric: cytotoxicity at 12 h, 1 nM (%)
Give the value, in units of %, as a plain number.

*Q* Would you kindly share the measured cytotoxicity at 12 h, 1 nM for `CC(C)C[C@H](NC(=O)[C@H](Cc1ccccc1)NC(=O)c1cnccn1)B(O)O` ?
*A* 0.2

* * *

Assay: in vitro
Details: human, wild type haploid (HAP1) cells
Reported Metric: cytotoxicity at 6 h, 30 nM (%)
Hi! Could you send only the number? It should be in %, unit omitted.

*Q* Item CC(C)C[C@H](NC(=O)[C@H](Cc1ccccc1)NC(=O)c1cnccn1)B(O)O [bortezomib] has what recorded cytotoxicity at 6 h, 30 nM?
*A* 7.63

* * *

Experiment: in vitro
Details: human, wild type haploid (HAP1) cells
Reported Metric: cytotoxicity at 12 h, 60 nM (%)
Numeric only. Scale: %

*Q* If you can, please state the reported cytotoxicity at 12 h, 60 nM value of CC(C)C[C@H](NC(=O)[C@H](Cc1ccccc1)NC(=O)c1cnccn1)B(O)O [bortezomib] .
*A* 31.9

* * *

Assay: in vitro
Details: human, wild type haploid (HAP1) cells
Reported Metric: cytotoxicity at 6 h, 1 nM (%)
Return type: number; implicit unit %.

*Q* Item under review: `CC(C)C[C@H](NC(=O)[C@H](Cc1ccccc1)NC(=O)c1cnccn1)B(O)O` . Reported cytotoxicity at 6 h, 1 nM?
*A* 5.65

* * *

Assay: in vitro
Settings: human, wild type haploid (HAP1) cells
Reported Metric: cytotoxicity at 24 h, 3 nM
Give your result as the value with the unit written after it.

*Q* For the molecule shown here, `CC(C)C[C@H](NC(=O)[C@H](Cc1ccccc1)NC(=O)c1cnccn1)B(O)O` , give the reported cytotoxicity at 24 h, 3 nM.
*A* 16.6%

* * *

Test: in vitro
Settings: human, wild type haploid (HAP1) cells
Reported Metric: cytotoxicity at 6 h, 60 nM (%)
Report as a plain number; the unit % is understood.

*Q* Which cytotoxicity at 6 h, 60 nM reading was recorded for the molecule `CC(C)C[C@H](NC(=O)[C@H](Cc1ccccc1)NC(=O)c1cnccn1)B(O)O` ?
*A* 9.63

* * *

Test: in vitro
Settings: human, wild type haploid (HAP1) cells
Reported Metric: cytotoxicity at 18 h, 100 nM (%)
Give the value in % but do not write % after it.

*Q* Sample `CC(C)C[C@H](NC(=O)[C@H](Cc1ccccc1)NC(=O)c1cnccn1)B(O)O` — what was its cytotoxicity at 18 h, 100 nM?
*A* 32.7
